Kd for assorted binders
Biological target: T1, CCL8 (human, UniProt P80075 24-99)
T1 chain: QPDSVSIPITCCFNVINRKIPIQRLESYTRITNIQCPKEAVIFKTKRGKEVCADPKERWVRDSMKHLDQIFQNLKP
Experiment: BLI
# unit: nM | format: bare number

P546_AMBCA, purified, C-terminal StrepII-8xHis tag (natural protein) ETGENTQQEEEDYDYGTDTCPFPVLANKTNKAKFVGCHQKCNGGDQKLTDGTACYVVERKVWDRMTPMLWYSCPLGECKNGVCEDLRKKEECRKGNGEEK :: 1.3

Incoming: If you can, please state the reported Kd value of P1183_AMBTR, purified, C-terminal StrepII-8xHis tag (natural protein) ETGEAPKDDFEYDGGCPFVVLDNGTHVKPAGCSHLCNGAPETLDNIECYNVTEEVAKRMTPGIPYACWLGWCSKGECKRDNRTEVCYRGSEEE .
Outgoing: 1100

Incoming: If you can, please state the reported Kd value of P991_AMBCA, purified, C-terminal StrepII-8xHis tag (natural protein) ETGENGEGTTQPDYDNSTDYYNYEDFKCTCPAPHLNNTNGTVMKPIGCYYTCNVTRCTAPDTYPCYNLTEHQAKNLTTSPTTLCAVGNCDHGICVPNGTKELCFKAPNLEE .
Outgoing: 8.8

Incoming: If you can, please state the reported Kd value of P974_AMBCA, purified, C-terminal StrepII-8xHis tag (natural protein) ETGENTQQEEQDYDYGTDTCPFPVLANKTNKAKFVGCHQKCNGGDQKLTDGTACYVVERKVWDRMTPMLWYECPLGECKNGVCEDLRKKEDCRKGNGEEK .
Outgoing: 2.6

Values compiled from paper PMC5487423.
